Molecular target: NK-1 receptor (Homo sapiens)
Construct: endogenous in cells; host or cells: IM9 cells (human cell line), whole cells
Experiment: NK-1 Receptor Binding Assay (125I-labeled substance P, IM9 cells)
Conditions: inhibits fifty percent of binding of 125I-substance P to IM9 cells
// reported pIC50 per item
Remember the convention: pIC50 equals -log10 of concentration in molar.

Some solved cases for reference:
>>> result_number("COc1ccccc1CN(CC(Cc1c[nH]c2ccccc12)NC(=O)CNCc1ccncc1)C(C)=O (stereo not shown)")
8.08
>>> result_number("COc1ccccc1CN(C[C@@H](Cc1c[nH]c2ccccc12)NC(=O)CCC(=O)c1ccccc1)C(C)=O")
7.46
>>> result_number("O=C(CN1CCN(c2ccccc2)CC1)NC(CNCC1CCCCC1)Cc1c[nH]c2ccccc12 (stereo not shown)")
6.19
>>> result_number("COc1ccccc1CNCC(Cc1c[nH]c2cc(F)ccc12)NC(=O)CN1CCC(N2CCCCC2)CC1 (stereo not shown)")
7.57
>>> result_number("CC(=O)N(Cc1ccccc1)CC(Cc1c[nH]c2ccccc12)NC(=O)CN1CCN(c2ccccc2)CC1 (stereo not shown)")
8.80

The reported pIC50 value, NK-1 receptor (Homo sapiens), for CCOC(=O)N(Cc1ccccc1OC)CC(Cc1c[nH]c2ccccc12)NC(=O)CN1CCN(c2ccccc2)CC1 (stereo not shown) reads 8.77

Reading of pIC50 for COc1ccccc1CN(CC(CC1CN(C(C)=O)c2ccccc21)NC(=O)CN1CCN(c2ccccc2)CC1)C(C)=O (mixture of isomers) with NK-1 receptor (Homo sapiens): 7.12

* * *

Listing of entries alongside the reported NK-2 percent inhibition of binding.
Target: human NK-2 receptor (Homo sapiens, UniProt P21452)
Construct: expressed in transfected cells; host or cells: CHO-hNK-2R cells (CHO-derived), membrane preparation
Sequence (P21452 whole entry): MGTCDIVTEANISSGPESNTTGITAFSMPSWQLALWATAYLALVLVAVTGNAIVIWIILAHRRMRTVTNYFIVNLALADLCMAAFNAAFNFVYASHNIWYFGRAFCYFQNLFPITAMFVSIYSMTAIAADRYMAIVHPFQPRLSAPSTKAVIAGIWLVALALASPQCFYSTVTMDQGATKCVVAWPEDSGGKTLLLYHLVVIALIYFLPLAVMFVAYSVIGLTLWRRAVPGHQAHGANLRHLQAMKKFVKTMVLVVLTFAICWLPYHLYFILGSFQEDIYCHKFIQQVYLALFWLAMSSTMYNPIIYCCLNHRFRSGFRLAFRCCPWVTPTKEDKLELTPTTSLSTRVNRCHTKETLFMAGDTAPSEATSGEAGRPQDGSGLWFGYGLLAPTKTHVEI
Test: NK-2 Receptor Binding Assay ([125I]iodohistidyl-neurokinin A, CHO-hNK-2R membranes)
Details: @ 10 μM
# number only, unit % @ dropped from output

Memo: CC(=O)NC(Cc1c[nH]c2ccccc12)CN(C(C)=O)C(C)c1ccccc1 (stereo not shown) [Example 100] , reported NK-2 percent inhibition of binding: 40

* * *

Biological target: NK-1 receptor (Homo sapiens)
Construct: endogenous in cells
Experiment: NK-1 Receptor Binding Assay (125I-labeled substance P, IM9 cells)
Details: inhibits fifty percent of binding of 125I-substance P to IM9 cells
Item-by-item account of IC50
Give the value, in units of nM, as a plain number.

>>> result_number("COc1ccccc1CN(CC(Cc1c[nH]c2ccccc12)NC(=O)CN1CCN(c2ccc(Cl)cc2)CC1)C(C)=O (stereo not drawn)")
5.4
>>> result_number("COc1ccccc1CN(CC(Cc1c[nH]c2ccccc12)NC(=O)CN1CCN(c2ccccc2)CC1)C(=O)CN(C)C (stereo not drawn)")
0.89

// moving on: another record for IC50
Query CC(=O)N(Cc1ccccc1[N+](=O)[O-])CC(Cc1c[nH]c2ccccc12)NC(=O)CN1CCN(c2ccccc2)CC1 (stereo not drawn) on NK-1 receptor (Homo sapiens); IC50 returned: 4.2

* * *

Biological target: NK-1 receptor (Homo sapiens, UniProt P25103)
Construct: endogenous in cells
Sequence (P25103 whole entry): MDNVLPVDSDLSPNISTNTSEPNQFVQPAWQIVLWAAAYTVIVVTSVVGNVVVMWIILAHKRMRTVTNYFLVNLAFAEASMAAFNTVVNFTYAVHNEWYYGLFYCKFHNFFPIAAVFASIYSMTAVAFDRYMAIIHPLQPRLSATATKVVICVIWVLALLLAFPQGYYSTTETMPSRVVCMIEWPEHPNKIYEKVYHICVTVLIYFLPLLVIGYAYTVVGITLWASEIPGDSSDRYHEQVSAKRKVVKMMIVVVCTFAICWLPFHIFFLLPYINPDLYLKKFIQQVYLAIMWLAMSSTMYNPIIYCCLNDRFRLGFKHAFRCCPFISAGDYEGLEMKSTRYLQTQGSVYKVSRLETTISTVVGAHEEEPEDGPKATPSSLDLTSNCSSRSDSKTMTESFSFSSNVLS
Assay: NK-1 Receptor Binding Assay (125I-labeled substance P, IM9 cells)
Conditions: inhibits fifty percent of binding of 125I-substance P to IM9 cells
Below, each entry is listed with its recorded log10 IC50.
Hey, these are logged values: log10 of IC50, nM being the unit before logging.

Past entries and their recorded results:
>>> result_number("CCCCN(CC(Cc1c[nH]c2ccccc12)NC(=O)CN1CCN(c2ccccc2)CC1)C(C)=O (stereo not drawn) [Example 39]")
2.14
>>> result_number("CCN(Cc1ccccc1OC)CC(Cc1c[nH]c2ccccc12)NC(=O)CN1CCN(c2ccccc2)CC1 (stereo not drawn) [Example 9]")
1.92
>>> result_number("COc1ccccc1CN(CC(Cc1c[nH]c2ccccc12)NC(=O)CN1CCC(c2ccccc2)CC1)C(C)=O (stereo not drawn) [Example 65]")
0.86

Kindly review the next compound as well.
Observed log10 IC50, NK-1 receptor (Homo sapiens, UniProt P25103), CCOC(=O)N1CCN(CC(=O)NC(Cc2c[nH]c3ccccc23)CN(Cc2ccccc2OC)C(C)=O)CC1 (stereo not drawn) [Example 80] : 1.28
